The reader will find reported inhibition at 1 µM values listed item by item below.
target: ABHD6 (Mus musculus, UniProt Q8R2Y0); construct: Proteomes (mouse brain membrane fraction or cell lysates); from tissue; host or cells: mouse brain membrane fraction (or unspecified cell lysates); experiment: In vitro competitive activity-based protein profiling (mouse), ABHD6; format: biochemical; settings: 1 μM, mouse proteome, in vitro; read-out: % Inhibition at 1 μM ABHD6
Sequence (Q8R2Y0 whole entry): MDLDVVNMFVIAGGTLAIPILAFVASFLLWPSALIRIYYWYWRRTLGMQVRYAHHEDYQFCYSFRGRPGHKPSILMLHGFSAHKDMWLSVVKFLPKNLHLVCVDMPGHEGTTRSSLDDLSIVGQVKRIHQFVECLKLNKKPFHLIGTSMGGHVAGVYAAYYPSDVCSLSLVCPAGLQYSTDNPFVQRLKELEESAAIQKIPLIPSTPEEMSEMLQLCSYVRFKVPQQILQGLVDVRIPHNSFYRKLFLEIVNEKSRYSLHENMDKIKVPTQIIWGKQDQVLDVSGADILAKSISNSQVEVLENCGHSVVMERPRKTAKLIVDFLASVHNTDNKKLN

Some solved cases for reference:
INSERT INTO measurements (molecule, measure_name, result) VALUES
  ('O=C(OC(C(F)(F)F)C(F)(F)F)N1CCN(Cc2ccc(Cl)cc2N2CC3CN(C4CC4)CC3C2)CC1 (stereo not drawn)', 'inhibition at 1 µM', '< 25%'),
  ('O=C(O)C1CCN(c2cc(C(F)(F)F)ccc2CN2CCN(C(=O)OC(C(F)(F)F)C(F)(F)F)CC2)C1 (stereo not drawn)', 'inhibition at 1 µM', '> 75%'),
  ('Cc1cccc(CN2CCN(C(=O)OC(C(F)(F)F)C(F)(F)F)CC2)c1N1CC[C@H](CF)C1', 'inhibition at 1 µM', '< 25%'),
  ('CC(=O)N1CCN(Cc2cccc(CN3CCN(C(=O)OC(C(F)(F)F)C(F)(F)F)CC3)c2C)CC1', 'inhibition at 1 µM', '> 75%'),
  ('O=C(OC(C(F)(F)F)C(F)(F)F)N1CCN(Cc2cccc(OC(F)(F)F)c2N2CC3CCC(C2)O3)CC1', 'inhibition at 1 µM', '< 25%'),
  ('O=C(OC(C(F)(F)F)C(F)(F)F)N1CCN(Cc2cccc(CN3CCOCC3)c2F)CC1', 'inhibition at 1 µM', '> 75%'),
  ('CCOC(=O)C1CCCN1c1cc(CN2CCN(C(=O)OC(C(F)(F)F)C(F)(F)F)CC2)ccc1C(F)(F)F (stereo not drawn)', 'inhibition at 1 µM', '> 75%'),
  ('O=C(O)C1CN(c2cc(C(F)(F)F)ccc2CN2CCN(C(=O)OC(C(F)(F)F)C(F)(F)F)CC2)CCO1 (stereo not drawn)', 'inhibition at 1 µM', '< 25%');

Sure, the documented inhibition at 1 µM for Cc1cc(C)n(C2CN(c3cc(Cl)ccc3CN3CCN(C(=O)OC(C(F)(F)F)C(F)(F)F)CC3)C2)n1 is < 25%

Item: Cc1cccc(CN2CCN(C(=O)OC(C(F)(F)F)C(F)(F)F)CC2)c1N1CCC(NS(C)(=O)=O)CC1 | inhibition at 1 µM: < 25%

Just so you know, measured inhibition at 1 µM for Cc1c(CN2CCC(NS(C)(=O)=O)CC2)cccc1CN1CCN(C(=O)OC(C(F)(F)F)C(F)(F)F)CC1 came out at > 75%

The molecule listed as CCOC(=O)C1CCCN1c1cc(C(F)(F)F)ccc1CN1CCN(C(=O)OC(C(F)(F)F)C(F)(F)F)CC1 (stereo not drawn) shows inhibition at 1 µM equal to > 75%
